# tgt: UniProt:O76074
# test-method-notes: Inhibitory concentration against Phosphodiesterase type 5
reported-metric: log10 IC50 (log10 of the value in nM)
The common logarithm of IC50 in nM is what is listed.

>>> recorded_measurement("O=C(Nc1nc(C(Cc2ccccc2)C(=O)NO)cs1)c1cccc(COc2ccccc2)n1 (stereo not given)")
2.92

What the record says about CCc1cc(C(C)=O)c(O)cc1OCc1cccc(C(=O)NCCC(=O)O)n1 : log10 IC50 is 2.43

What the record says about O=C(Cc1csc(NC(=O)c2cccc(COc3ccccc3)n2)n1)NO : log10 IC50 is 2.28

What the record says about O=C(Cc1csc(NC(=O)c2ccccc2)n1)NO : log10 IC50 is 3.51

What the record says about CCc1cc(C(C)=O)c(O)cc1OCc1cccc(C(=O)NC(C)C(=O)OC)c1 (stereo not given) : log10 IC50 is 3.33

----------
# tgt: Phosphodiesterase 1 (Homo sapiens, UniProt P54750+Q01064+Q14123)
# test-method-notes: Inhibitory concentration against Phosphodiesterase type 1
# Assay type: protein assay
reported-metric: log10 IC50 (log10 of the value in µM)
The common logarithm of IC50 in µM is what is listed.

Below: 2 compounds and their reported log10 IC50.
>>> recorded_measurement("O=C(Cc1csc(NC(=O)c2ccccn2)n1)NO")
0.85
>>> recorded_measurement("CCCCCCC(C(=O)NO)c1csc(NC(=O)c2cccc(COc3ccccc3)n2)n1 (stereo not drawn)")
0.76

# O=C(Nc1nc(C2(C(=O)NO)CCOCC2)cs1)c1cccc(COc2ccccc2)n1 with Phosphodiesterase 1 (Homo sapiens, UniProt P54750+Q01064+Q14123): log10 IC50 is 0.47

# Cc1sc(NC(=O)c2cccc(COc3ccccc3)n2)nc1CC(=O)NO with Phosphodiesterase 1 (Homo sapiens, UniProt P54750+Q01064+Q14123): log10 IC50 is 0.66

# O=C(Cc1csc(NC(=O)c2cccc(SC(F)(F)F)c2)n1)NO with Phosphodiesterase 1 (Homo sapiens, UniProt P54750+Q01064+Q14123): log10 IC50 is 0.24

# O=C(Cc1csc(NC(=O)c2cccc3ccccc23)n1)NO with Phosphodiesterase 1 (Homo sapiens, UniProt P54750+Q01064+Q14123): log10 IC50 is 0.00

# CC(C)CC(C(=O)NO)c1csc(NC(=O)c2cccc(COc3ccccc3)n2)n1 (stereo not drawn) with Phosphodiesterase 1 (Homo sapiens, UniProt P54750+Q01064+Q14123): log10 IC50 is 0.60

# O=C(Cc1csc(NC(=O)CCCCCc2ccccc2)n1)NO with Phosphodiesterase 1 (Homo sapiens, UniProt P54750+Q01064+Q14123): log10 IC50 is 0.65

# O=C(Nc1nc(C(Cc2ccccc2)C(=O)NO)cs1)c1cccc(COc2ccccc2)n1 (stereo not drawn) with Phosphodiesterase 1 (Homo sapiens, UniProt P54750+Q01064+Q14123): log10 IC50 is 0.13

----------
# tgt: Phosphodiesterase 1 (Homo sapiens, UniProt P54750+Q01064+Q14123)
# test-method-notes: Inhibitory concentration against Phosphodiesterase type 1
# Type: protein assay
reported-metric: IC50

>>> recorded_measurement("COc1ccc2c(c1)C(CC(=O)Nc1nc(CC(=O)NO)cs1)CC2=O (centres undefined)")
"> 10 µM"

What the record says about O=C(O)CCC(C(=O)O)c1csc(NC(=O)c2cccc(COc3ccccc3)n2)n1 (centres undefined) : IC50 is > 10 µM

What the record says about O=C(Cc1csc(NC(=O)CCC(=O)c2ccccc2)n1)NO : IC50 is > 10 µM

What the record says about O=C(NO)c1cccc(NC(=O)c2cccc(COc3ccccc3)n2)n1 : IC50 is > 10 µM

Entry source: ChEMBL document CHEMBL1140357
